// reported IC50 per item
Test System: human inducible NO-synthase (Homo sapiens)
Construct: host or cells: crude cytosolic fraction
Sequence (P35228 whole entry): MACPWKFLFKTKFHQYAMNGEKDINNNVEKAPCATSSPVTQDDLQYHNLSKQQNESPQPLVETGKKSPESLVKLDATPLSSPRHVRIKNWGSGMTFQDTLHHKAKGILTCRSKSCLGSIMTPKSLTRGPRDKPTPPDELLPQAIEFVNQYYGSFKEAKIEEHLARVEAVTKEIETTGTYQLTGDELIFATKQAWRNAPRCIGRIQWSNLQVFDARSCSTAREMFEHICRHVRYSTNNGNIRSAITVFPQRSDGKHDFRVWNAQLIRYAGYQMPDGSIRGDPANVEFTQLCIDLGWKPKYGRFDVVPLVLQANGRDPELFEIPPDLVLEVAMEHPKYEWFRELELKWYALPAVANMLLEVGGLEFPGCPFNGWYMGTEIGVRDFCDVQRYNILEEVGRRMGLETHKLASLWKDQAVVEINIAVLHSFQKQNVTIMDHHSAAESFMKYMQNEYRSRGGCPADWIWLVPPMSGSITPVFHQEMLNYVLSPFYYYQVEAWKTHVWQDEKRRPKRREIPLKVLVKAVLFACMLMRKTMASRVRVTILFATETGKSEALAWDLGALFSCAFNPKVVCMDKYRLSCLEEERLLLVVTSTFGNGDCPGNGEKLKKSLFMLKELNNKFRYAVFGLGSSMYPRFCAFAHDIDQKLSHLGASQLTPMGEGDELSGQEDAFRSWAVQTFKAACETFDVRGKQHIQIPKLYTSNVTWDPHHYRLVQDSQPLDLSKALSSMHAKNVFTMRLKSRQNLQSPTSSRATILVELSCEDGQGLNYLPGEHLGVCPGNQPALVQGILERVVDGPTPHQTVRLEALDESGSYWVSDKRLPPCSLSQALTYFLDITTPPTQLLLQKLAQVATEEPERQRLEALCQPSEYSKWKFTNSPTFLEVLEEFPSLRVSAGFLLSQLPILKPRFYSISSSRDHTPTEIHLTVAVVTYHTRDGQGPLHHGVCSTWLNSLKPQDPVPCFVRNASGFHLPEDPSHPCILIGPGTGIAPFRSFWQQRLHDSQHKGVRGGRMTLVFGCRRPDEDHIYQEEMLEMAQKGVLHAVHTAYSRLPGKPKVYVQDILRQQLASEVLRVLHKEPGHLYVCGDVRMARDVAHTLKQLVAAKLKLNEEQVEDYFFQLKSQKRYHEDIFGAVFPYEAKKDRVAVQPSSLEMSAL
Assay Text: Measurement of inducible NO-synthase activity ([3H]arginine conversion)
Type: biochemical
Test Conditions: crude cytosolic fraction containing human inducible NO-synthase; 0.1 μM arginine; 45 to 60 min at 37° C.; read-out: Inhibition of INOS activity [measured as −logIC50 (mol/l)] (converted)

For orientation, consider the following solved cases.
> print(dat)
                                   molecule  measurement.name   result
1  COc1ccnc(CCc2nc3cc4cc(OC)ccc4nc3[nH]2)c1 [compound 4]              IC50   102 nM
2  COc1ccnc(CCc2nc3cc4cc(Br)ccc4nc3[nH]2)c1 [compound 5]              IC50  77.6 nM
3  COc1ccnc(CCc2nc3cc4ccccc4nc3[nH]2)c1 [compound 1]              IC50  89.1 nM

Identify IC50 associated with the molecule COc1ccnc(CCc2nc3cc4cc(-c5ccc(CO)cc5)ccc4nc3[nH]2)c1 [compound 6]
363 nM

Using known records, supply IC50 for COc1ccnc(CCc2nc3cc4cccc(C)c4nc3[nH]2)c1 [compound 3]
135 nM

Give me measured IC50, please, for this molecule: COc1ccnc(CCc2nc3cc4cc(C)ccc4nc3[nH]2)c1 [compound 2]
117 nM
